Give pKi for every item shown.
biological target: D(1A) dopamine receptor (Sus scrofa, UniProt P50130); test: Displacement of [3H]SCH23390 from porcine striatal membranes D1 receptor by competitive binding assay
Sequence (P50130 whole entry): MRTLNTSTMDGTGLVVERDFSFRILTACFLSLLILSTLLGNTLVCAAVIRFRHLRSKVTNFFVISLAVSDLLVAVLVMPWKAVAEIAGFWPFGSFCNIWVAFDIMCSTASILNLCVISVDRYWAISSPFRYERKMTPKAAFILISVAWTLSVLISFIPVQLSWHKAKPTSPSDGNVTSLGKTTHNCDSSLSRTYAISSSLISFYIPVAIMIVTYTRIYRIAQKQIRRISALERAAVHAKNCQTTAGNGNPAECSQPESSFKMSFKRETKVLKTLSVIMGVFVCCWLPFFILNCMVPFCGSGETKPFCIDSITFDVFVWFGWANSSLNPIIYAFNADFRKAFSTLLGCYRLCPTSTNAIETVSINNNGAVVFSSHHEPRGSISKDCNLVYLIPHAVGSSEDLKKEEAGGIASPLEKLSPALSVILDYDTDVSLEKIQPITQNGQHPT
Recall that pKi is obtained by taking minus log10 of the concentration measured in molar.

Task item: Report pKi under test system D(1A) dopamine receptor (Sus scrofa, UniProt P50130) for "O=C(CCCCCCC(=O)OC1(c2ccc(Cl)cc2)CCN(CCCC(=O)c2ccc(F)cc2)CC1)OC1(c2ccc(Cl)cc2)CCN(CCCC(=O)c2ccc(F)cc2)CC1" .
Reply: 6.04

Task item: Report pKi under test system D(1A) dopamine receptor (Sus scrofa, UniProt P50130) for "CN(C)CCC(=O)OC1(c2ccc(Cl)cc2)CCN(CCCC(=O)c2ccc(F)cc2)CC1" .
Reply: 6.70

Task item: Report pKi under test system D(1A) dopamine receptor (Sus scrofa, UniProt P50130) for "O=C(CCCCC(=O)OC1(c2ccc(Cl)cc2)CCN(CCCC(=O)c2ccc(F)cc2)CC1)OC1(c2ccc(Cl)cc2)CCN(CCCC(=O)c2ccc(F)cc2)CC1" .
Reply: 6.66

Task item: Report pKi under test system D(1A) dopamine receptor (Sus scrofa, UniProt P50130) for "O=C(CCc1cn(CCOCCOCCOCCOCCn2cc(CCC(=O)OC3(c4ccc(Cl)cc4)CCN(CCCC(=O)c4ccc(F)cc4)CC3)nn2)nn1)OC1(c2ccc(Cl)cc2)CCN(CCCC(=O)c2ccc(F)cc2)CC1" .
Reply: 6.82

Task item: Report pKi under test system D(1A) dopamine receptor (Sus scrofa, UniProt P50130) for "Cc1ccc(C(=O)OC2(c3ccc(Cl)cc3)CCN(CCCC(=O)c3ccc(F)cc3)CC2)cc1" .
Reply: 6.26

Task item: Report pKi under test system D(1A) dopamine receptor (Sus scrofa, UniProt P50130) for "O=C(CCCC(=O)OC1(c2ccc(Cl)cc2)CCN(CCCC(=O)c2ccc(F)cc2)CC1)OC1(c2ccc(Cl)cc2)CCN(CCCC(=O)c2ccc(F)cc2)CC1" .
Reply: 6.66

Task item: Report pKi under test system D(1A) dopamine receptor (Sus scrofa, UniProt P50130) for "O=C(CCCCCCCCC(=O)OC1(c2ccc(Cl)cc2)CCN(CCCC(=O)c2ccc(F)cc2)CC1)OC1(c2ccc(Cl)cc2)CCN(CCCC(=O)c2ccc(F)cc2)CC1" .
Reply: 5.85

Task item: Report pKi under test system D(1A) dopamine receptor (Sus scrofa, UniProt P50130) for "O=C(CCC(=O)N1CCC(O)(c2ccc(Cl)cc2)CC1)c1ccc(F)cc1" .
Reply: 4.72

Task item: Report pKi under test system D(1A) dopamine receptor (Sus scrofa, UniProt P50130) for "CN(CCC(=O)OC1(c2ccc(Cl)cc2)CCN(CCCC(=O)c2ccc(F)cc2)CC1)CCN(C)CCC(=O)OC1(c2ccc(Cl)cc2)CCN(CCCC(=O)c2ccc(F)cc2)CC1" .
Reply: 6.59

Task item: Report pKi under test system D(1A) dopamine receptor (Sus scrofa, UniProt P50130) for "O=C(CCc1cn(CCCCCCCCCCn2cc(CCC(=O)OC3(c4ccc(Cl)cc4)CCN(CCCC(=O)c4ccc(F)cc4)CC3)nn2)nn1)OC1(c2ccc(Cl)cc2)CCN(CCCC(=O)c2ccc(F)cc2)CC1" .
Reply: 7.07

Task item: Report pKi under test system D(1A) dopamine receptor (Sus scrofa, UniProt P50130) for "CC(=O)OC1(c2ccc(Cl)cc2)CCN(CCCC(=O)c2ccc(F)cc2)CC1" .
Reply: 7.23

Task item: Report pKi under test system D(1A) dopamine receptor (Sus scrofa, UniProt P50130) for "O=C(CCCCCCCCCCCCC(=O)OC1(c2ccc(Cl)cc2)CCN(CCCC(=O)c2ccc(F)cc2)CC1)OC1(c2ccc(Cl)cc2)CCN(CCCC(=O)c2ccc(F)cc2)CC1" .
Reply: 5.85

Task item: Report pKi under test system D(1A) dopamine receptor (Sus scrofa, UniProt P50130) for "O=C(CCCCCCCCCCC(=O)OC1(c2ccc(Cl)cc2)CCN(CCCC(=O)c2ccc(F)cc2)CC1)OC1(c2ccc(Cl)cc2)CCN(CCCC(=O)c2ccc(F)cc2)CC1" .
Reply: 5.96
